# experimentalTarget: CDK2/Cyclin A (Homo sapiens, UniProt P24941)
# assayOverview: Inhibition of CDK2/Cyclin A Retinoblastoma Kinase Activity
# Assay type: biochemical
# conditionInfo: read-out: % inhibition of CDK2 (@ 0.05 μM), compound at 0.05 μM
Would you please tag the item Y when its inhibition at 0.05 µM is 80% or above, and N when it is below?

INSERT INTO results (mol, experimentaltarget, assignedlabel) VALUES
  ('Nc1cccc(CNCCCS(=O)(=O)N2CCC(Nc3nc(N)c(C(=O)c4c(F)cccc4F)s3)CC2)c1', 'CDK2/Cyclin A (Homo sapiens, UniProt P24941)', 'Y'),
  ('Nc1nc(NC2CCN(S(=O)(=O)CCCN[C@H]3CC[C@H](O)CC3)CC2)sc1C(=O)c1c(F)cccc1F', 'CDK2/Cyclin A (Homo sapiens, UniProt P24941)', 'Y'),
  ('C[C@H](NCCCS(=O)(=O)N1CCC(Nc2nc(N)c(C(=O)c3c(F)cccc3F)s2)CC1)C(N)=O', 'CDK2/Cyclin A (Homo sapiens, UniProt P24941)', 'N'),
  ('Nc1ccc(CNCCCS(=O)(=O)N2CCC(Nc3nc(N)c(C(=O)c4c(F)cccc4F)s3)CC2)cc1', 'CDK2/Cyclin A (Homo sapiens, UniProt P24941)', 'Y'),
  ('CCCN(CCC#N)CCCS(=O)(=O)N1CCC(Nc2nc(N)c(C(=O)c3c(F)cccc3F)s2)CC1', 'CDK2/Cyclin A (Homo sapiens, UniProt P24941)', 'Y');

---

// CDK2 % Inhibition at 0.03 μM lookup, one value per entry
# experimentalTarget: CDK2/Cyclin A (Homo sapiens, UniProt P24941)
# assayOverview: Inhibition of CDK2/Cyclin A Retinoblastoma Kinase Activity
# Assay type: biochemical
# conditionInfo: at 0.03 μM
# Procedure: Cyclin-dependent kinase activity was measured by quantifying the enzyme-catalyzed, time-dependent incorporation of radioactive phosphate from [^32P]ATP or [^33P]ATP into a protein substrate. […] The phosphorylated substrate was then captured on a nitrocellulose or phosphocellulose membrane using a 96-well filtration manifold, and unincorporated radioactivity was removed by repeated washing with 0.85% phosphoric acid. Radioactivity was quantified by exposing the dried membranes to a phosphorimager. […]
assayEndpoint: CDK2 % Inhibition at 0.03 μM

INSERT INTO measurements (mol, experimentaltarget, assayendpoint, valuemeasured) VALUES
  ('Nc1nc(NC2CCN(C(=O)c3sc4ccccc4c3Cl)CC2)sc1C(=O)c1c(F)cccc1F', 'CDK2/Cyclin A (Homo sapiens, UniProt P24941)', 'CDK2 % Inhibition at 0.03 μM', '57%'),
  ('Nc1nc(NC2CCN(C(=O)c3ccc(C(F)(F)F)cc3)CC2)sc1C(=O)c1c(F)cccc1F', 'CDK2/Cyclin A (Homo sapiens, UniProt P24941)', 'CDK2 % Inhibition at 0.03 μM', '17%'),
  ('CCn1nc(C)c(Br)c1C(=O)N1CCC(Nc2nc(N)c(C(=O)c3c(F)cccc3F)s2)CC1', 'CDK2/Cyclin A (Homo sapiens, UniProt P24941)', 'CDK2 % Inhibition at 0.03 μM', '22%'),
  ('CC(=O)Nc1ccc(C(=O)N2CCC(Nc3nc(N)c(C(=O)c4c(F)cccc4F)s3)CC2)cc1', 'CDK2/Cyclin A (Homo sapiens, UniProt P24941)', 'CDK2 % Inhibition at 0.03 μM', '74%'),
  ('CC(C)(Oc1ccc(Cl)cc1)C(=O)N1CCC(Nc2nc(N)c(C(=O)c3c(F)cccc3F)s2)CC1', 'CDK2/Cyclin A (Homo sapiens, UniProt P24941)', 'CDK2 % Inhibition at 0.03 μM', '16%'),
  ('COc1c(C(=O)N2CCC(Nc3nc(N)c(C(=O)c4c(F)cccc4F)s3)CC2)csc1Cl', 'CDK2/Cyclin A (Homo sapiens, UniProt P24941)', 'CDK2 % Inhibition at 0.03 μM', '34%'),
  ('COc1ccc(OC)c(C(=O)N2CCC(Nc3nc(N)c(C(=O)c4c(F)cccc4F)s3)CC2)c1', 'CDK2/Cyclin A (Homo sapiens, UniProt P24941)', 'CDK2 % Inhibition at 0.03 μM', '53%');

Taken from patent US20050101595A1.
